Just for reference, patent US8975398B2 is where these values come from.

Entries and their pIC50 values follow.
test system: PC3 cells; assay: NAMPT Cell Proliferation Assay (Cell Titer Glo; also performed in the presence of 0.3 mM nicotinamide mononucleotide); assay type: cell-based; conditions: Homo sapiens, PC-3, 120 h, 5 days incubation, cell viability by Cell Titer Glo
Answer as the number alone; pIC50 is minus log10 of concentration in mol/L.

- compound: "O=C(Nc1ccc(C2CCN(C(=O)c3cccc(F)c3)CC2)c(F)c1)C1CN(c2cccnn2)C1 [Example 879]"
  pIC50: 8.23

I would be grateful if you could share the reported pIC50 for COCC(C)(C)CNC(=O)c1ccc(NC(=O)C2CN(c3cccnn3)C2)cc1 [Example 974] .
8.11

I would be grateful if you could share the reported pIC50 for CC(C)(C)C(=O)N1CCC(c2ccc(NC(=O)C3CN(c4cccnn4)C3)cc2F)CC1 [Example 886] .
8.12

I would be grateful if you could share the reported pIC50 for CCC(C)CC(=O)N1CCC(Cc2ccc(NC(=O)C3CN(c4cccnn4)C3)cc2)CC1 (centres unmarked) [Example 964] .
8.74

I would be grateful if you could share the reported pIC50 for CC(C)CCC(=O)N1CCC(Cc2ccc(NC(=O)C3CN(c4cccnn4)C3)cc2)CC1 [Example 935] .
8.70

I would be grateful if you could share the reported pIC50 for CCC1CCCCN1CCNC(=O)c1ccc(NC(=O)C2CN(c3cccnn3)C2)cc1 (centres unmarked) [Example 976] .
7.21

I would be grateful if you could share the reported pIC50 for Cc1ccc(N2CC(C(=O)Nc3ccc(O[C@@H]4CCN(C(=O)C(C)C)C4)cc3)C2)nn1 [Example 916] .
6.19

I would be grateful if you could share the reported pIC50 for O=C(Nc1ccccc1F)c1ccc(NC(=O)C2CN(c3cccnn3)C2)cc1 [Example 1010] .
7.15

I would be grateful if you could share the reported pIC50 for Cc1ccnnc1N1CC[C@H](C(=O)Nc2ccc(C3CCN(C(=O)c4ccccc4)CC3)cc2)C1 [Example 921] .
8.54

I would be grateful if you could share the reported pIC50 for O=C(N[C@H]1CCN(c2cccnn2)C1)c1ccc(C2CCN(C(=O)CC3CC4CCC3C4)CC2)s1 (some centres unmarked) [Example 1019] .
5.61

I would be grateful if you could share the reported pIC50 for O=C(NC[C@@H]1CCCO1)c1ccc(NC(=O)C2CN(c3cccnn3)C2)cc1 [Example 1000] .
7.11

I would be grateful if you could share the reported pIC50 for CCCC(=O)N1CCC(Cc2ccc(NC(=O)C3CN(c4cccnn4)C3)cc2)CC1 [Example 959] .
8.63

I would be grateful if you could share the reported pIC50 for Cc1ccc(N2CC(C(=O)Nc3ccc(-c4cnn(CC5(C)CCN(C6COC6)CC5)c4)cc3)C2)nn1 [Example 905] .
7.88

I would be grateful if you could share the reported pIC50 for CCCCC(=O)N1CCC(Cc2ccc(NC(=O)C3CN(c4cccnn4)C3)cc2)CC1 [Example 961] .
8.25

I would be grateful if you could share the reported pIC50 for C#CCCC(=O)N1CCC(Cc2ccc(NC(=O)C3CN(c4cccnn4)C3)cc2)CC1 [Example 941] .
8.68

I would be grateful if you could share the reported pIC50 for CC1(C(=O)N2CCC(c3ccc(C(=O)N[C@H]4CCN(c5cccnn5)C4)s3)CC2)CC1 [Example 1016] .
6.67

I would be grateful if you could share the reported pIC50 for CCCCCC(=O)N1CCC(Cc2ccc(NC(=O)C3CN(c4cccnn4)C3)cc2)CC1 [Example 948] .
8.65
